Cited source: patent US20220372013A2

Test system: mice
Assay: Biological Example 5: acute toxicity experiment of single oral administration in mice
Format: in vivo
Settings: Male mice; Day 1; single oral 1000 mg/Kg; Mean ± SD
Readings of Daily Body Weight for the listed compounds
Return type: number; implicit unit g.

Solved entries (count: 4):
COCCN1C(=O)CCC(N2C(=O)c3ccc(F)c(N)c3C2=O)C1=O (centres unmarked) : 18.3
COCCCCN1C(=O)CCC(N2C(=O)c3cccc(N)c3C2=O)C1=O (centres unmarked) : 17.1
COCCN1C(=O)CCC(N2C(=O)c3cccc(C)c3C2=O)C1=O (centres unmarked) : 17.7
COCCCN1C(=O)CCC(N2C(=O)c3cccc(F)c3C2=O)C1=O (centres unmarked) : 19.0

Please look at the following compound next.
# value lookup — system mice, readout Daily Body Weight, item COCCCN1C(=O)CCC(N2C(=O)c3cccc(N)c3C2=O)C1=O (centres unmarked)
18.7

---

System: mice
Assay: Biological Example 5: acute toxicity experiment of single oral administration in mice
Type: in vivo
Conditions: Female mice; Day 3; single oral 1000 mg/Kg; Mean ± SD
measurementType: Daily Body Weight (g)
Return type: number; implicit unit g.

Solved entries (count: 2):
C[S+]([O-])CCN1C(=O)CCC(N2C(=O)c3cccc(N)c3C2=O)C1=O (centres unmarked) : 22.6
CNc1cccc2c1C(=O)N(C1CCC(=O)N(CCOC)C1=O)C2=O (centres unmarked) : 23.2

# value lookup — system mice, readout Daily Body Weight, item COCCN1C(=O)CCC(N2C(=O)c3cccc(NC(C)=O)c3C2=O)C1=O (centres unmarked)
23.2

Same question, COCCCN1C(=O)CCC(N2C(=O)c3cccc(F)c3C2=O)C1=O (centres unmarked) this time
22.7

Same question, COCCN1C(=O)CCC(N2C(=O)c3cccc(O)c3C2=O)C1=O (centres unmarked) this time
23.0

---

Tested on: mice
Experiment: Biological Example 5: acute toxicity experiment of single oral administration in mice
Assay type: in vivo
Settings: Male mice; Day 7; single oral 1000 mg/Kg; Mean ± SD
measurementType: Daily Body Weight (g)
Return type: number; implicit unit g.

Solved entries (count: 6):
COCCN1C(=O)CCC(N2C(=O)c3cccc(F)c3C2=O)C1=O (stereo not drawn) : 28.2
CCOCCN1C(=O)CCC(N2C(=O)c3cccc(F)c3C2=O)C1=O (stereo not drawn) : 29.3
COCCCN1C(=O)CCC(N2C(=O)c3cccc(N)c3C2=O)C1=O (stereo not drawn) : 28.8
COCCCCN1C(=O)CCC(N2C(=O)c3cccc(N)c3C2=O)C1=O (stereo not drawn) : 27.4
COCCCN1C(=O)CCC(N2C(=O)c3cccc(F)c3C2=O)C1=O (stereo not drawn) : 29.3
CCOCCN1C(=O)CCC(N2C(=O)c3cccc(N)c3C2=O)C1=O (stereo not drawn) : 27.7

Please look at the following compound next.
Endpoint output: Daily Body Weight of COCCN1C(=O)CCC(N2C(=O)c3cccc(C)c3C2=O)C1=O (stereo not drawn) . Value?
28.9

---

System: mice
Experiment: Biological Example 5: acute toxicity experiment of single oral administration in mice
Format: in vivo
Settings: Female mice; Day 3; single oral 1000 mg/Kg; Mean ± SD
measurementType: Daily Body Weight

Endpoint output: Daily Body Weight of COCCCCN1C(=O)CCC(N2C(=O)c3cccc(N)c3C2=O)C1=O (centres unmarked) . Value?
22.9 ± 0.4 g

---

Test system: mice
Assay: Biological Example 5: acute toxicity experiment of single oral administration in mice
Type: in vivo
Details: Male mice; Day 4; single oral 1000 mg/Kg; Mean ± SD
measurementType: Daily Body Weight (g)
Return type: number; implicit unit g.

COCCCN1C(=O)CCC(N2C(=O)c3cccc(F)c3C2=O)C1=O (stereo not drawn) : 24.6

Endpoint output: Daily Body Weight of COCCCN1C(=O)CCC(N2C(=O)c3ccc(N)cc3C2=O)C1=O (stereo not drawn) . Value?
25.6

---

Test system: mice
Assay: Biological Example 5: acute toxicity experiment of single oral administration in mice
Format: in vivo
Conditions: Male mice; Day 4; single oral 1000 mg/Kg; Mean ± SD
Readings of Daily Body Weight for the listed compounds
Return type: number; implicit unit g.

Solved entries (count: 4):
CS(=O)(=O)CCN1C(=O)CCC(N2C(=O)c3cccc(N)c3C2=O)C1=O (centres unmarked) : 24.4
COCCN1C(=O)CCC(N2C(=O)c3c(N)ccc(O)c3C2=O)C1=O (centres unmarked) : 25.5
COCCN1C(=O)CCC(N2C(=O)c3cccc(C)c3C2=O)C1=O (centres unmarked) : 25.2
C[S+]([O-])CCN1C(=O)CCC(N2C(=O)c3cccc(N)c3C2=O)C1=O (centres unmarked) : 24.9

Please look at the following compound next.
Endpoint output: Daily Body Weight of CCOCCN1C(=O)CCC(N2C(=O)c3cccc(N)c3C2=O)C1=O (centres unmarked) . Value?
25.0

---

Readings of Daily Body Weight for the listed compounds
Test system: mice
Experiment: Biological Example 5: acute toxicity experiment of single oral administration in mice
Assay type: in vivo
Details: Female mice; Day 6; single oral 1000 mg/Kg; Mean ± SD
Return type: number; implicit unit g.

Solved entries (count: 3):
COCCCCN1C(=O)CCC(N2C(=O)c3cccc(N)c3C2=O)C1=O (stereo not drawn) : 25.3
C[S+]([O-])CCN1C(=O)CCC(N2C(=O)c3cccc(N)c3C2=O)C1=O (stereo not drawn) : 25.3
COCCN1C(=O)CCC(N2C(=O)c3cccc(O)c3C2=O)C1=O (stereo not drawn) : 24.8

# value lookup — system mice, readout Daily Body Weight, item CNc1cccc2c1C(=O)N(C1CCC(=O)N(CCOC)C1=O)C2=O (stereo not drawn)
24.6

---

Readings of Body weight for the listed compounds
Test system: DNBS-Induced Inflammatory Bowel Disease Models in Rats
Test: Biological Example 3: DNBS-induced inflammatory bowel disease models in rats
Type: in vivo, Wistar rats
Settings: Day 5; 30 mg/Kg i.g. qd × 7; Mean ± SD
Return type: number; implicit unit g.

COCCN1C(=O)CCC(N2C(=O)c3ccc(F)cc3C2=O)C1=O (stereo not shown) [Example 21] : 157.9
COCCN1C(=O)CCC(N2C(=O)c3cccc(F)c3C2=O)C1=O (stereo not shown) [Example 4] : 162.5

Endpoint output: Body weight of COCCN1C(=O)CCC(N2C(=O)c3ccc(N)cc3C2=O)C1=O (stereo not shown) [Example 7] . Value?
159.2

Same question, COCCCCN1C(=O)CCC(N2C(=O)c3cccc(N)c3C2=O)C1=O (stereo not shown) [Example 22] this time
162.7

Same question, COCCCN1C(=O)CCC(N2C(=O)c3cccc(NC(C)=O)c3C2=O)C1=O (stereo not shown) [Example 16] this time
166.8

Same question, Nc1cccc2c1C(=O)N(C1CCC(=O)N(CCO)C1=O)C2=O (stereo not shown) [Example 6] this time
164.2

Same question, COCCN1C(=O)CCC(N2C(=O)c3cccc(N)c3C2=O)C1=O (stereo not shown) [Example 27] this time
159.1

---

Tested on: DNBS-Induced Inflammatory Bowel Disease Models in Rats
Experiment: Biological Example 4: DNBS-induced inflammatory bowel disease models in rats
Format: in vivo, Wistar rats
Details: Day 4; 30 mg/Kg i.g. qd × 7; Mean ± SD
measurementType: Body weight (g)
Return type: number; implicit unit g.

Solved entries (count: 4):
C[S+]([O-])CCN1C(=O)CCC(N2C(=O)c3cccc(N)c3C2=O)C1=O (stereo not drawn) : 141.8
COCCN1C(=O)CCC(N2C(=O)c3cccc(O)c3C2=O)C1=O (stereo not drawn) : 136.5
COCCN1C(=O)CCC(N2C(=O)c3cccc(N)c3C2=O)C1=O (stereo not drawn) : 133.1
COCCN1C(=O)CCC(N2C(=O)c3c(N)ccc(O)c3C2=O)C1=O (stereo not drawn) : 136.9

Endpoint output: Body weight of COCCN1C(=O)CCC(N2C(=O)c3c(F)c(F)c(F)c(F)c3C2=O)C1=O (stereo not drawn) . Value?
133.9

Same question, CNc1cccc2c1C(=O)N(C1CCC(=O)N(CCOC)C1=O)C2=O (stereo not drawn) this time
132.0

Same question, COCCN1C(=O)CCC(N2C(=O)c3cccc(C)c3C2=O)C1=O (stereo not drawn) this time
135.3

Same question, COCCN1C(=O)CCC(F)(N2C(=O)c3cccc(N)c3C2=O)C1=O (stereo not drawn) this time
136.5

Same question, COCCN1C(=O)CCC(N2C(=O)c3ccc(O)c(N)c3C2=O)C1=O (stereo not drawn) this time
136.8

---

Readings of Daily Body Weight for the listed compounds
Tested on: mice
Experiment: Biological Example 5: acute toxicity experiment of single oral administration in mice
Format: in vivo
Details: Male mice; Day 2; single oral 1000 mg/Kg; Mean ± SD
Return type: number; implicit unit g.

Solved entries (count: 5):
COCCCN1C(=O)CCC(N2C(=O)c3cccc(F)c3C2=O)C1=O (stereo not drawn) : 24.0
COCCCN1C(=O)CCC(N2C(=O)c3cccc(N)c3C2=O)C1=O (stereo not drawn) : 23.4
COCCN1C(=O)CCC(N2C(=O)c3cccc(O)c3C2=O)C1=O (stereo not drawn) : 24.6
CCOCCN1C(=O)CCC(N2C(=O)c3cccc(N)c3C2=O)C1=O (stereo not drawn) : 20.7
COCCN1C(=O)CCC(N2C(=O)c3cccc(NC(C)=O)c3C2=O)C1=O (stereo not drawn) : 23.8

Endpoint output: Daily Body Weight of C[S+]([O-])CCN1C(=O)CCC(N2C(=O)c3cccc(N)c3C2=O)C1=O (stereo not drawn) . Value?
24.3

Same question, CNc1cccc2c1C(=O)N(C1CCC(=O)N(CCOC)C1=O)C2=O (stereo not drawn) this time
24.1

Same question, COCCN1C(=O)CCC(N2C(=O)c3cccc(F)c3C2=O)C1=O (stereo not drawn) this time
22.2

Same question, COCCCN1C(=O)CCC(N2C(=O)c3ccc(N)cc3C2=O)C1=O (stereo not drawn) this time
23.0
